From: ChEMBL document CHEMBL1201862

System: Malme-3M
Assay: NCI tumour cell line growth inhibition, 48 h
Activity calls are given as the source filed them. Cut-off read from the data, not from the text of the source: active = GI50 up to about 1.1 µM and inactive = higher.
Possible outcomes: true (1) (active), false (0) (inactive)

[[record]]
compound = "CC(=O)OC1CC2C(C)(C)C(=O)C=C[C@]2(C)C2CCC3(C)C(c4ccoc4)C(=O)C4OC43[C@]12C (stereo partly specified)"
labelvalue = "false (0)"

[[record]]
compound = "CCCC(=O)Nc1cc(/C=C/C(=O)N2C[C@H]3C[C@@]34C2=CC(=O)c2[nH]cc(C)c24)n(C)c1"
labelvalue = "true (1)"

[[record]]
compound = "Cn1c(=O)cc(N2CCCC2)[nH]c1=O"
labelvalue = "false (0)"

[[record]]
compound = "COC1CC(C)(NC(=O)C(F)(F)F)C2OC(c3ccccc3)OCC2O1 (stereo unspecified)"
labelvalue = "false (0)"

[[record]]
compound = "CN(/N=C/c1ccnc2ccccc12)c1c([N+](=O)[O-])cc([N+](=O)[O-])cc1[N+](=O)[O-]"
labelvalue = "false (0)"

[[record]]
compound = "COc1cccc(-c2cc(O)c3ccccc3n2)c1"
labelvalue = "false (0)"

[[record]]
compound = "CC(C)(C)C1=CC(=C(c2ccc(-c3c4nc(c(-c5ccc(C(=C6C=C(C(C)(C)C)C(=O)C(C(C)(C)C)=C6)c6cc(C(C)(C)C)c(O)c(C(C)(C)C)c6)cc5)c5ccc([nH]5)c(-c5ccc(C(=C6C=C(C(C)(C)C)C(=O)C(C(C)(C)C)=C6)c6cc(C(C)(C)C)c(O)c(C(C)(C)C)c6)cc5)c5nc(c(-c6ccc(C(=C7C=C(C(C)(C)C)C(=O)C(C(C)(C)C)=C7)c7cc(C(C)(C)C)c(O)c(C(C)(C)C)c7)cc6)c6ccc3[nH]6)C=C5)C=C4)cc2)c2cc(C(C)(C)C)c(O)c(C(C)(C)C)c2)C=C(C(C)(C)C)C1=O"
labelvalue = "false (0)"

[[record]]
compound = "COC(=O)N/N=C(\\C)CC(=O)Nc1cccc([N+](=O)[O-])c1"
labelvalue = "false (0)"

[[record]]
compound = "O=C1C[C@H](CCC(=O)OCc2ccccc2)NC(=O)C[C@H](CCC(=O)OCc2ccccc2)NC(=O)C[C@H](CCC(=O)OCc2ccccc2)N1"
labelvalue = "false (0)"

[[record]]
compound = "COC(=O)C(NC(=O)OC(C)(C)C)P(=O)(OC)OC (stereo unspecified)"
labelvalue = "false (0)"

[[record]]
compound = "N#C[C@H](c1ccccn1)c1nc2ccccc2nc1Cl"
labelvalue = "false (0)"

[[record]]
compound = "COc1ccc(NC(=S)c2ccc([N+](=O)[O-])o2)cc1"
labelvalue = "false (0)"

[[record]]
compound = "CC(C)CC1c2[nH]c3ccccc3c2C[C@H]2C(=O)NC(CCC(=O)OC(C)(C)C)C(=O)N12 (stereo partly specified)"
labelvalue = "false (0)"

[[record]]
compound = "O=C(O)CCC1C(=O)C2CCN1CC2 (stereo unspecified)"
labelvalue = "false (0)"

[[record]]
compound = "COP(=O)(OC)C(O)/C=C(\\Cl)c1ccc(Cl)cc1 (stereo unspecified)"
labelvalue = "false (0)"

[[record]]
compound = "N#CC(C(=O)C(=O)NCCCNC(=O)C(=O)C(C#N)c1ccccc1)c1ccccc1 (stereo unspecified)"
labelvalue = "false (0)"


====

System: CAKI-1
Assay: NCI tumour cell line growth inhibition, 48 h
Calls of active or inactive are those of the source. No stated cut-off is given here; in the data, active = GI50 up to about 1.1 µM and inactive = higher.
# Lookup of reported GI50 keyed by entry
measurementType: GI50

[[record]]
compound = "CCOc1cc2cnc3c4cc(OC)c(OC)cc4ccc3c2cc1OC"
targetofassay = "CAKI-1"
measurementtype = "GI50"
result = "> 100 µM (inactive)"

[[record]]
compound = "CN(O)C(=O)/C=C/c1ccc(OCc2cccc(Cl)c2)cc1"
targetofassay = "CAKI-1"
measurementtype = "GI50"
result = "26.4 µM (inactive)"

[[record]]
compound = "O=C(CNc1c(Cl)cccc1Cl)NC1C=Cc2ccc(S(=O)(=O)Nc3c(Cl)cccc3Cl)cc2C1=O (stereo not given)"
targetofassay = "CAKI-1"
measurementtype = "GI50"
result = "47.5 µM (inactive)"

[[record]]
compound = "CCOC(=O)NC(Nc1ccc(F)c(F)c1)(C(=O)OCC)C(F)(F)F (stereo not given)"
targetofassay = "CAKI-1"
measurementtype = "GI50"
result = "> 100 µM (inactive)"

[[record]]
compound = "CCCCOC(=O)Nc1ccc(S(=O)(=O)Nc2c(Cl)cccc2Cl)cc1"
targetofassay = "CAKI-1"
measurementtype = "GI50"
result = "25.6 µM (inactive)"

[[record]]
compound = "CC(=O)OCC1OC(c2nnc(C)o2)=CC(OC(C)=O)C1OC(C)=O (stereo not given)"
targetofassay = "CAKI-1"
measurementtype = "GI50"
result = "> 100 µM (inactive)"

[[record]]
compound = "CN(/N=C/c1ccnc2ccccc12)c1c([N+](=O)[O-])cc([N+](=O)[O-])cc1[N+](=O)[O-]"
targetofassay = "CAKI-1"
measurementtype = "GI50"
result = "25.1 µM (inactive)"

[[record]]
compound = "Cc1c(Cc2ccccc2)n(COCCCO)c(=O)[nH]c1=O"
targetofassay = "CAKI-1"
measurementtype = "GI50"
result = "> 100 µM (inactive)"

[[record]]
compound = "Oc1cccc2c1[nH]c1c(C3=C[C@@]4(O)CC/C=C\\CCCCN5CC[C@@H]3[C@]3(CC6/C=C\\CCCCN6[C@H]34)C5)nccc12 (stereo not given in full)"
targetofassay = "CAKI-1"
measurementtype = "GI50"
result = "1.67 µM (inactive)"

[[record]]
compound = "N#C[C@H](c1ccccn1)c1nc2ccccc2nc1Cl"
targetofassay = "CAKI-1"
measurementtype = "GI50"
result = "> 100 µM (inactive)"


====

System: T47D
Assay: NCI tumour cell line growth inhibition, 48 h
The source made the active and inactive calls. Rule as the data show it: active = GI50 up to about 1.1 µM and inactive = higher.
# Lookup of reported GI50 keyed by entry
measurementType: GI50

[[record]]
compound = "CC(=O)OCC1OC(n2c(C)c(/N=N/c3ccc(C)cc3)c(C)c(C#N)c2=S)C(OC(C)=O)C(OC(C)=O)C1OC(C)=O (stereo unspecified)"
targetofassay = "T47D"
measurementtype = "GI50"
result = "> 100 µM (inactive)"

[[record]]
compound = "NS(=O)(=O)c1nnc(NSc2ccc([N+](=O)[O-])cc2)s1"
targetofassay = "T47D"
measurementtype = "GI50"
result = "> 100 µM (inactive)"

[[record]]
compound = "O=C(O)c1cc(/N=C/c2ccccc2O)cc(C(=O)O)c1"
targetofassay = "T47D"
measurementtype = "GI50"
result = "> 100 µM (inactive)"

[[record]]
compound = "N=c1oc2ccccc2cc1C(=O)Nc1ccccn1"
targetofassay = "T47D"
measurementtype = "GI50"
result = "43.7 µM (inactive)"

[[record]]
compound = "CCCCCCCCCCCCCCCCOP(=O)([O-])OCC[N+](C)(C)C"
targetofassay = "T47D"
measurementtype = "GI50"
result = "18.2 µM (inactive)"

[[record]]
compound = "COC(=O)c1cc(O)nc(O)n1"
targetofassay = "T47D"
measurementtype = "GI50"
result = "> 100 µM (inactive)"

[[record]]
compound = "CCOC(=O)c1nc2cc(Cl)ccc2[nH]c1=O"
targetofassay = "T47D"
measurementtype = "GI50"
result = "> 100 µM (inactive)"

[[record]]
compound = "COc1nc2ncc([C@@H](O)[C@H](O)CO)nc2c(=O)n1C"
targetofassay = "T47D"
measurementtype = "GI50"
result = "> 100 µM (inactive)"

[[record]]
compound = "O=C(O)CC12CC3CC(CC(O)(C3)C1)C2"
targetofassay = "T47D"
measurementtype = "GI50"
result = "> 100 µM (inactive)"

[[record]]
compound = "NC(C(=O)OC(=O)c1ccccc1)C(=O)OC(=O)c1ccccc1"
targetofassay = "T47D"
measurementtype = "GI50"
result = "> 100 µM (inactive)"

[[record]]
compound = "c1ncc(C23C4C5C6C4C2C6C53)[nH]1 (stereo unspecified)"
targetofassay = "T47D"
measurementtype = "GI50"
result = "> 100 µM (inactive)"


====

Tested on: K562
Experiment: NCI tumour cell line growth inhibition, 48 h
Calls of active or inactive are those of the source. No stated cut-off is given here; in the data, active = GI50 up to about 1.1 µM and inactive = higher.
# Lookup of reported GI50 keyed by entry
measurementType: GI50

[[record]]
molecule = "c1ccc(COC[C@H]2C3OCC([C@H](OCc4ccccc4)[C@H]3OCc3ccccc3)N2Cc2ccccc2)cc1 (stereo not given in full)"
targetofassay = "K562"
measurementtype = "GI50"
result = "12.4 µM (inactive)"

[[record]]
molecule = "CCCC(=O)Nc1cc2c3c(c1)CCCN3CCC2"
targetofassay = "K562"
measurementtype = "GI50"
result = "> 10 µM (inactive)"

[[record]]
molecule = "Cc1[nH]c2ccccc2c1C1=NO/C(=N\\O)C(c2c(C)[nH]c3ccccc23)C1 (stereo not given)"
targetofassay = "K562"
measurementtype = "GI50"
result = "33.2 µM (inactive)"

[[record]]
molecule = "CCOC(=O)CC(NCc1ccc(/N=C/c2nc3ccc(C(F)(F)F)cc3nc2-c2ccccc2)cc1)C(=O)OCC (stereo not given)"
targetofassay = "K562"
measurementtype = "GI50"
result = "> 100 µM (inactive)"

[[record]]
molecule = "O=C(NC(Cc1c[nH]c2ccccc12)C(=O)Nc1ccc(Br)cc1)OCc1ccccc1 (stereo not given)"
targetofassay = "K562"
measurementtype = "GI50"
result = "6.82 µM (inactive)"

[[record]]
molecule = "CN(C)c1cccc2c1C(=O)C=CC21CCc2ccc(N(C)C)c3c(N(C)C)ccc1c23 (stereo not given)"
targetofassay = "K562"
measurementtype = "GI50"
result = "3.96 µM (inactive)"

[[record]]
molecule = "CC(C)(C)OC(=O)NNCC(O)COc1ccccc1 (stereo not given)"
targetofassay = "K562"
measurementtype = "GI50"
result = "> 100 µM (inactive)"

[[record]]
molecule = "C[N+]1(C)CN(c2ccccc2)C2(CCN(CCCC(=O)c3cccs3)CC2)C1=O"
targetofassay = "K562"
measurementtype = "GI50"
result = "76 µM (inactive)"

[[record]]
molecule = "COC1C2C=CC(C2)[C@H]1[N+](=O)[O-] (stereo not given in full)"
targetofassay = "K562"
measurementtype = "GI50"
result = "> 100 µM (inactive)"

[[record]]
molecule = "N/N=C1\\CCCc2c1no[n+]2[O-]"
targetofassay = "K562"
measurementtype = "GI50"
result = "> 100 µM (inactive)"

